# study system: mouse RBP2 (Mus musculus, UniProt Q08652)
# Sequence (Q08652 1-134): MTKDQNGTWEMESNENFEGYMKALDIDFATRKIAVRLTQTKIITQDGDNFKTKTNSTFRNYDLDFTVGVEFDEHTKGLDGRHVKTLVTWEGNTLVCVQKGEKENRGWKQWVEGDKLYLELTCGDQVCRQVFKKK
# Type: binding
Below: a set of entries, each annotated with reported pKd.
The read-out pKd is expressed as -log10 of concentration in moles per litre.

[[record]]
molecule_smiles = "CCCCC/C=C\\C/C=C\\C/C=C\\C/C=C\\CCCC(=O)OC(CO)CO"
reported = 7.57


Let's switch to this molecule now.
Recorded pKd of CCCCCCCC/C=C\CCCCCCCC(=O)OC(CO)CO , please.
7.18
